Every entry's value here was drawn from ChEMBL document CHEMBL3588823.

Exercise: for every item that follows, state its recorded MRT inf.
Assay: MRT (INF) in rat at 5 mg/kg, po
Format: ADME, organism-based
Details: in vivo
Your reply should be a number followed by the unit it is expressed in.

I would be grateful if you could share the reported MRT inf for "COC(=O)c1ccc(N2C(=S)N(c3ccc(C#N)c(C(F)(F)F)c3)C(=O)[C@]23CCOC3)cc1F" .
5 h

I would be grateful if you could share the reported MRT inf for "CNC(=O)c1ccc(N2C(=S)N(c3ccc(C#N)c(C(F)(F)F)c3)C(=O)[C@]23CCOC3)cc1F" .
7.2 h

I would be grateful if you could share the reported MRT inf for "N#Cc1ccc(N2C(=O)[C@]3(CCOC3)N(c3ccc(C(=O)O)c(F)c3)C2=S)cc1C(F)(F)F" .
4.2 h

I would be grateful if you could share the reported MRT inf for "N#Cc1ccc(N2C(=O)[C@]3(CCOC3)N(c3ccc(C(N)=O)c(F)c3)C2=S)cc1C(F)(F)F" .
3.7 h

====

Test: AUC (0 to infinity) in rat at 1 mg/kg, iv
Assay type: ADME, organism-based
Set-up: dose 1 mg/kg, route intravenous, time infinity
Conditions: in vivo
measured-endpoint: AUC(0-inf) (ng·h/mL)
Output spec: scalar in ng·h/mL, unitless text.

I would be grateful if you could share the reported AUC(0-inf) for "CNC(=O)c1ccc(N2C(=S)N(c3ccc(C#N)c(C(F)(F)F)c3)C(=O)[C@]23CCOC3)cc1F" .
2620

I would be grateful if you could share the reported AUC(0-inf) for "N#Cc1ccc(N2C(=O)[C@]3(CCOC3)N(c3ccc(C(N)=O)c(F)c3)C2=S)cc1C(F)(F)F" .
303

I would be grateful if you could share the reported AUC(0-inf) for "N#Cc1ccc(N2C(=O)[C@]3(CCOC3)N(c3ccc(C(=O)O)c(F)c3)C2=S)cc1C(F)(F)F" .
509

I would be grateful if you could share the reported AUC(0-inf) for "COC(=O)c1ccc(N2C(=S)N(c3ccc(C#N)c(C(F)(F)F)c3)C(=O)[C@]23CCOC3)cc1F" .
712

====

Assay: Volume of distribution at steady state in rat at 1 mg/kg, iv
Type: ADME, organism-based
Settings: in vivo, read-out: Vdss
measured-endpoint: Vd (L/kg)
Output spec: scalar in L/kg, unitless text.

I would be grateful if you could share the reported Vd for "N#Cc1ccc(N2C(=O)[C@]3(CCOC3)N(c3ccc(C(N)=O)c(F)c3)C2=S)cc1C(F)(F)F" .
6.1

====

Test: MRT (last) in rat at 5 mg/kg, po
Format: ADME, organism-based
Conditions: in vivo
measured-endpoint: MRT last (h)
Output spec: scalar in h, unitless text.

I would be grateful if you could share the reported MRT last for "COC(=O)c1ccc(N2C(=S)N(c3ccc(C#N)c(C(F)(F)F)c3)C(=O)[C@]23CCOC3)cc1F" .
4.6

I would be grateful if you could share the reported MRT last for "CNC(=O)c1ccc(N2C(=S)N(c3ccc(C#N)c(C(F)(F)F)c3)C(=O)[C@]23CCOC3)cc1F" .
6.9

I would be grateful if you could share the reported MRT last for "N#Cc1ccc(N2C(=O)[C@]3(CCOC3)N(c3ccc(C(N)=O)c(F)c3)C2=S)cc1C(F)(F)F" .
3.1

I would be grateful if you could share the reported MRT last for "N#Cc1ccc(N2C(=O)[C@]3(CCOC3)N(c3ccc(C(=O)O)c(F)c3)C2=S)cc1C(F)(F)F" .
3.5

====

Target: Androgen receptor (Homo sapiens)
Sequence (P10275 whole entry): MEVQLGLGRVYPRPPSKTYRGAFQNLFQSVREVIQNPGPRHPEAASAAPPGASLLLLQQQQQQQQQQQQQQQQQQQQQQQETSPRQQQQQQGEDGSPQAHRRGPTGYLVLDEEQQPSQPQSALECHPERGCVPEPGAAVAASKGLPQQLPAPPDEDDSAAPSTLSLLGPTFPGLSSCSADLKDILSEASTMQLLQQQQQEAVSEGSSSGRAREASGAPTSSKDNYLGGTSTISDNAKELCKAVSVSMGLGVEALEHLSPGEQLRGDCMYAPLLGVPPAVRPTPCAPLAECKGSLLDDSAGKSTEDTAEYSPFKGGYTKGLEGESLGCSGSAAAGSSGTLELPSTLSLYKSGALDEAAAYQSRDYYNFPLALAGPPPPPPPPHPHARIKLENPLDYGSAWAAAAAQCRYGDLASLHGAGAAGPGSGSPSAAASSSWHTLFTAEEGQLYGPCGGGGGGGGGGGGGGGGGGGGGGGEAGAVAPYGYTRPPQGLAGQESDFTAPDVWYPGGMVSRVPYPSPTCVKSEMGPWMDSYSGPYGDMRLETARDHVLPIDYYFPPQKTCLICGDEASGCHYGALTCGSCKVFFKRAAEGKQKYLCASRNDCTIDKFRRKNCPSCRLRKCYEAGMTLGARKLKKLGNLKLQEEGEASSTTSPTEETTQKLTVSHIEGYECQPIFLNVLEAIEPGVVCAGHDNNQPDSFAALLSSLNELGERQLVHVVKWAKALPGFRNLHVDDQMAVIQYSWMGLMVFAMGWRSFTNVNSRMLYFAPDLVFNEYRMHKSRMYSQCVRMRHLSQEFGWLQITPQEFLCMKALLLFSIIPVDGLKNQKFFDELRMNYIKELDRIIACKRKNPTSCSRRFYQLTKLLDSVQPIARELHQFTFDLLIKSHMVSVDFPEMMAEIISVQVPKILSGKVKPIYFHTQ
Assay: Partial agonist activity at androgen receptor (unknown origin)
measured-endpoint: pKi
// pKi is dimensionless: -log10 of concentration (M)

Please state recorded pKi (tested on Androgen receptor (Homo sapiens)) of CNC(=O)c1ccc(N2C(=S)N(c3ccc(C#N)c(C(F)(F)F)c3)C(=O)C2C)cc1F (racemic)
6.59

Please state recorded pKi (tested on Androgen receptor (Homo sapiens)) of CNC(=O)c1ccc(N2C(=S)N(c3ccc(C#N)c(C(F)(F)F)c3)C(=O)C2(C)CO)cc1F (centres undefined)
7.36

Please state recorded pKi (tested on Androgen receptor (Homo sapiens)) of "CNC(=O)c1ccc(N2C(=S)N(c3ccc(C#N)c(C(F)(F)F)c3)C(=O)[C@H]2C)cc1F"
6.32

Please state recorded pKi (tested on Androgen receptor (Homo sapiens)) of "CNC(=O)c1ccc(N2C(=S)N(c3ccc(C#N)c(C(F)(F)F)c3)C(=O)[C@@H]2C)cc1F"
7.02

====

Exercise: for every item that follows, state its recorded AUC.
Assay: AUC (0 to time) in rat at 1 mg/kg, iv
Format: ADME, organism-based
Conditions: in vivo
Output spec: scalar in ng·h/mL, unitless text.

I would be grateful if you could share the reported AUC for "N#Cc1ccc(N2C(=O)[C@]3(CCOC3)N(c3ccc(C(=O)O)c(F)c3)C2=S)cc1C(F)(F)F" .
497

I would be grateful if you could share the reported AUC for "CNC(=O)c1ccc(N2C(=S)N(c3ccc(C#N)c(C(F)(F)F)c3)C(=O)[C@]23CCOC3)cc1F" .
2570

I would be grateful if you could share the reported AUC for "N#Cc1ccc(N2C(=O)[C@]3(CCOC3)N(c3ccc(C(N)=O)c(F)c3)C2=S)cc1C(F)(F)F" .
295

I would be grateful if you could share the reported AUC for "COC(=O)c1ccc(N2C(=S)N(c3ccc(C#N)c(C(F)(F)F)c3)C(=O)[C@]23CCOC3)cc1F" .
599

====

Molecular target: Androgen receptor (Homo sapiens, UniProt P10275)
Test: Antagonist activity at androgen receptor (unknown origin)
measured-endpoint: Ki

CNC(=O)c1ccc(N2C(=S)N(c3ccc(C#N)c(C(F)(F)F)c3)C(=O)C2(C)CC(=O)O)cc1F (racemic) ... Not Active
CNC(=O)c1ccc(N2C(=S)N(c3ccc(C#N)c(C(F)(F)F)c3)C(=O)[C@@]2(C)COC)cc1F ... 40.6 nM
N#Cc1ccc(N2C(=O)[C@]3(CCOC3)N(c3ccc(C(=O)O)c(F)c3)C2=S)cc1C(F)(F)F ... Not Active
